SYSTEM NAME: Luciferin 4-monooxygenase (Photinus pyralis)
ASSAY EXPLANATION: qHTS assay to identify small molecule inhibitors of firefly luciferase (AID 1224835); note: nearly all actives have a fitted effect of over 25% in size
CONDITION INFO: purified P. pyralis luciferase, luminescence inhibition; series mostly up to 115 µM
Results filed as inconclusive are left out. Calls of active or inactive are those of the source. Calls come from the whole dose curve; as a rule, active = well fitted inhibition curve with a large enough effect in the repeat runs; inconclusive = weak or mixed curves; inactive = flat fitted curve, though single readings scatter.
Outcomes: T for active, F for inactive

| COMPOUND | GROUP |
| --- | --- |
| Clc1cc(Cl)c(Cl)c(Cl)c1 | F |
| CCOC(=O)[C@]1(c2ccccc2)Oc2ccccc2[C@@H]1N | F |
| CCOP(=S)(OCC)Oc1cc(Cl)c(Br)cc1Cl | F |
| NNC(=O)c1cccnc1 | F |
| Sc1ccccc1Cl | F |
| CCCN(CCC)c1c([N+](=O)[O-])cc(S(C)(=O)=O)cc1[N+](=O)[O-] | F |
| O=C(NC(=O)c1c(F)cccc1F)Nc1ccc(OC(F)(F)C(F)OC(F)(F)F)c(Cl)c1 (stereo unspecified) | F |
| CCOP(=S)(OCC)Oc1nc(Cl)c(Cl)cc1Cl | F |
| Nc1nc(=S)[nH][nH]1 | F |
| Cn1sc(Cl)cc1=O | F |
| O=C(CBr)Nc1ccc(Cl)cc1C(=O)c1ccccc1F | F |
| O=C(O)c1ccccc1C(=O)Nc1cccc2ccccc12 | F |
| Nc1ccc([N+](=O)[O-])cc1[N+](=O)[O-] | F |
| CCCCN(N=O)C(=N)N[N+](=O)[O-] | F |
| CC(C)(C)C(O)C(Oc1ccc(Cl)cc1)n1cncn1 (stereo unspecified) | F |
| c1ccc(C2CC2)c(OCC2=NCCN2)c1 | F |
| CCC(C)(NC(=O)c1cc(Cl)c(C)c(Cl)c1)C(=O)CCl (stereo unspecified) | F |
| CS/C(C)=N/OC(=O)N(C)SN(C)C(=O)O/N=C(\C)SC | T |
| CCCC(=O)Cl | F |
| Clc1ccc(C2(Cn3cncn3)CC(Br)CO2)c(Cl)c1 (stereo unspecified) | F |
| O=S(=O)(Cl)c1ccccc1 | F |
| COC(C)(C)CCC[C@H](C)C/C=C/C(C)=C/C(=O)OC(C)C | F |
| CCOP(=S)(OCC)SCn1nnc2ccccc2c1=O | F |
| COCC(C)N(C(=O)CCl)c1c(C)csc1C (stereo unspecified) | F |
| CCn1cc[n+](C)c1 | F |
| CCCCN=C=O | F |
| C=COC(C)=O | F |
| BrCC(Br)C1CCC(Br)C(Br)C1 (stereo unspecified) | F |
| ClCC(Br)CBr (stereo unspecified) | F |
| O=C(NCc1cccnc1)Nc1ccc([N+](=O)[O-])cc1 | F |
| C=CCOC(C)=O | F |
| CC(C)(CCl)C(=O)Cl | F |
| CCCCCCCCOC(=O)c1ccc(C(=O)OCCCCCCCC)c(C(=O)OCCCCCCCC)c1 | F |
| C=C(C#N)CCC#N | F |
| CNC(C)Cc1ccccc1OC (stereo unspecified) | F |
| CCCC(Cn1cncn1)c1ccc(Cl)cc1Cl (stereo unspecified) | F |
| N#C/C(N)=C(/N)C#N | F |
| CC(O)(CS(=O)(=O)c1ccc(F)cc1)C(=O)Nc1ccc(C#N)c(C(F)(F)F)c1 (stereo unspecified) | F |
| O=S1(=O)OC(c2cc(Br)c(O)c(Br)c2)(c2cc(Br)c(O)c(Br)c2)c2ccccc21 | T |
| CO/N=C(/C(=O)OC)c1ccccc1COc1ccccc1C | F |
| COP(=O)(OC)O/C(=C/Cl)c1cc(Cl)c(Cl)cc1Cl | F |

* * *

ASSAY EXPLANATION: qHTS assay to identify small molecule agonists of the vitamin D receptor (VDR) signaling pathway - cell viability counter screen (AID 743224); note: nearly all actives have a fitted effect of over 50% in size
CONDITION INFO: VDR-bla HEK293T viability, CellTiter-Glo luminescence, 16 h; series mostly up to 62.6 µM
Results filed as inconclusive are left out. Active and inactive are the calls of the source. Calls follow the shape of the dose curve; as a rule, active = well fitted cell-killing curve with a large enough effect in the repeat runs; inconclusive = weak or mixed curves, or effect the other way; inactive = no such curve, though single readings can be large or run the other way.
Outcomes: 1 (yes) (active), 0 (no) (inactive)

| COMPOUND | GROUP |
| --- | --- |
| O=C(CBr)c1ccccc1 | 0 (no) |
| C=CC(=O)OC | 0 (no) |
| N#CCC#N | 0 (no) |
| CCCCCC[N+](=O)[O-] | 0 (no) |
| Cc1c(F)c(F)c(COC(=O)C2C(/C=C(\Cl)C(F)(F)F)C2(C)C)c(F)c1F (configuration not stated) | 0 (no) |
| CN(N=O)c1ccc([N+](=O)[O-])cc1 | 0 (no) |
| C[C@]12CC[C@H]3[C@@H](CCC4=CC(=O)CC[C@@H]43)[C@@H]1CC[C@@H]2OC(=O)CCC1CCCCC1 | 0 (no) |
| O=C1C(Cl)C(CCl)CN1c1cccc(C(F)(F)F)c1 (configuration not stated) | 0 (no) |
| ClC=C(Cl)Cl | 0 (no) |
| NNC(=O)c1cccnc1 | 0 (no) |
| C/C(=C\c1ccccc1)[N+](=O)[O-] | 1 (yes) |
| C=CCC1([C@H](C)CCC)C(=O)NC(=O)NC1=O | 0 (no) |

* * *

ASSAY EXPLANATION: Caspase-3/7 induction in CHO-K1 cells by small molecules, qHTS cell viability counter screen (AID 1346979); note: nearly all actives have a fitted effect of over 35% in size
CONDITION INFO: CellTiter-Fluor fluorescence, 17 h; series mostly up to 92.4 µM
Inconclusive results are not listed. Calls of active or inactive are those of the source. Calls follow the shape of the dose curve; as a rule, active = well fitted cell-killing curve with a large enough effect in the repeat runs; inconclusive = weak or mixed curves, or effect the other way; inactive = no such curve, though single readings can be large or run the other way.
Outcomes: T (active), F (inactive)

| COMPOUND | GROUP |
| --- | --- |
| COC(=O)c1cncn1C(C)c1ccccc1 (centres undefined) | F |
| NCCCNCCCN | F |
| CC(Cl)Cl | F |
| O=C(O)CC(Cl)C(=O)O (centres undefined) | F |
| Sc1ccccc1Cl | F |
| BrCC(Br)C1CCC(Br)C(Br)C1 (centres undefined) | F |
| CCOP(=S)(OCC)SCSCC | F |
| CCCCc1c(C)nc(NCC)nc1OS(=O)(=O)N(C)C | T |
| CCOP(=O)(OCC)Oc1ccc([N+](=O)[O-])cc1 | F |
| CC(C)(Cl)[N+](=O)[O-] | F |
| N#CCC#N | T |
| CCCCOC(=O)c1ccccc1C(=O)OCc1ccccc1 | F |
| CC1(C)[C@H](C=C(Cl)Cl)[C@@H]1C(=O)O[C@@H](C#N)c1cccc(Oc2ccccc2)c1 | F |
| COC(C)(C)CCC[C@H](C)C/C=C/C(C)=C/C(=O)OC(C)C | F |
| CC(C)(C)C(O)C(Oc1ccc(Cl)cc1)n1cncn1 (centres undefined) | F |
| CCOc1nc(F)cc2nc(S(=O)(=O)Nc3c(Cl)cccc3Cl)nn12 | F |
| CC(C)=CCOc1c2occc2cc2ccc(=O)oc12 | F |
| CCOP(=S)(OCC)Oc1nc(Cl)c(Cl)cc1Cl | F |
| C=CC(C)=O | F |

* * *

ASSAY EXPLANATION: qHTS assay to identify small molecule HDAC inhibitors - cell viability counter screen (AID 1259365); note: nearly all actives have a fitted effect of over 50% in size
CONDITION INFO: HCT-116 viability, CellTiter-Glo ATP luminescence, 2 h; series mostly up to 92.4 µM
Calls of active or inactive are those of the source. Calls come from the whole dose curve; as a rule, active = well fitted cell-killing curve with a large enough effect in the repeat runs; inconclusive = weak or mixed curves, or effect the other way; inactive = flat fitted curve, though single readings scatter.

| COMPOUND | outcome |
| --- | --- |
| CC1CC(CC2CCC(N)C(C)C2)CCC1N (stereo unspecified) | inactive |
| CCCCNP(N)(N)=S | inactive |
| C=CC(=O)OCCCCO | inactive |
| N#CCc1ccccc1 | inactive |
| NC(=O)CI | inactive |
| O=C(N[C@H](c1ccccc1)[C@@H]1CN2CCC1CC2)c1c(Cl)ccc(C(F)(F)F)c1Cl | inactive |
| C[C@]12CC[C@H]3[C@@H](CCC4=CC(=O)CC[C@@H]43)[C@@H]1CC[C@@H]2OC(=O)CCC1CCCCC1 | inactive |
| C=CC(=O)OCC(C)O (stereo unspecified) | inactive |
| O=C(O)c1ccccc1C(=O)Nc1cccc2ccccc12 | inactive |
| COC1=CC(=O)O[C@@H](CCc2ccccc2)C1 | inactive |
| C=CC(=O)NCNC(=O)C=C | inactive |
| Clc1cc(Cl)c(Cl)c(Cl)c1 | inactive |
| C[N+](C)(C)CCCl | inactive |
| CC(C)(C)C(O)C(Oc1ccc(Cl)cc1)n1cncn1 (stereo unspecified) | inactive |
| CCOP(=S)(OCC)SCn1nnc2ccccc2c1=O | inactive |
| CN1[C@@H]2CC[C@H]1CC(OC(=O)c1cc(Cl)cc(Cl)c1)C2 (stereo partly specified) | inactive |

* * *

SYSTEM NAME: Acetylcholinesterase (Homo sapiens)
ASSAY EXPLANATION: Acetylcholinesterase (AChE) small molecule antagonists: enzyme-based qHTS assay (AID 1347397); note: nearly all actives have a fitted effect of over 55% in size
CONDITION INFO: AChE enzyme activity inhibition; series mostly up to 115 µM
Activity calls are given as the source filed them. The call rests on the fitted dose curve.
Possible outcomes: TRUE for active, FALSE for inactive

| MOLECULE | GROUP |
| --- | --- |
| OCCCBr | FALSE |
| CCCN(CCC)c1c([N+](=O)[O-])cc(S(C)(=O)=O)cc1[N+](=O)[O-] | FALSE |
| Clc1ccc(C2(Cn3cncn3)CC(Br)CO2)c(Cl)c1 (centres undefined) | FALSE |
| C=CCC1([C@H](C)CCC)C(=O)NC(=O)NC1=O | FALSE |
| CCBr | FALSE |
| C=CC[C@]1(O)CC[C@H]2[C@@H]3CCC4=CC(=O)CCC4=C3C=C[C@@]21C | FALSE |
| COC(=O)c1cncn1C(C)c1ccccc1 (centres undefined) | FALSE |
| N#Cc1ccc(Cl)cc1 | FALSE |
| CCCCCCCCCCOC(=O)c1ccccc1C(=O)OCCCCCCCCCC | FALSE |
| CN1[C@@H]2CC[C@H]1CC(OC(=O)c1cc(Cl)cc(Cl)c1)C2 (some centres undefined) | FALSE |
| CCCC(Cn1cncn1)c1ccc(Cl)cc1Cl (centres undefined) | FALSE |
| C=C(C#N)CCC#N | FALSE |
| O=Cc1ccc(Cl)cc1Cl | FALSE |
| COP(=S)(OC)Oc1ccc([N+](=O)[O-])cc1Cl | FALSE |
| CNC(C)Cc1ccccc1OC (centres undefined) | FALSE |
| O=C(Nc1ccccc1)Nc1ccnc(Cl)c1 | FALSE |
| IC(I)=C(I)I | FALSE |
| CC(=O)[C@H]1CC[C@H]2[C@@H]3CC[C@H]4C[C@](C)(O)CC[C@]4(C)[C@H]3CC[C@]12C | FALSE |
| O=C(NC(=O)c1c(F)cccc1F)Nc1ccc(OC(F)(F)C(F)OC(F)(F)F)c(Cl)c1 (centres undefined) | FALSE |
| NNC(=O)c1cccnc1 | FALSE |
| CCOC(=O)C(Cl)C(C)=O (centres undefined) | FALSE |
| CCOP(=S)(OCC)Oc1nc(Cl)c(Cl)cc1Cl | TRUE |
| N#Cc1cc(I)c(O)c(I)c1 | FALSE |
| CCOc1ccc(C(C)(C)COCc2cccc(Oc3ccccc3)c2)cc1 | FALSE |
